target: Grb2 SH2 (UniProt P62993); assay: SH2 binding enrichment of the phosphorylated peptide, bacterial display (enrichment ratio); higher = better substrate or ligand; peptides without Tyr show the background;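 note: peptide library displayed on the E. coli surface as eCPX fusions, selected cells deep-sequenced, score is each peptide's frequency after selection divided by its frequency in the input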
Sequence (P62993 whole entry, looked up, the tested form may be a part): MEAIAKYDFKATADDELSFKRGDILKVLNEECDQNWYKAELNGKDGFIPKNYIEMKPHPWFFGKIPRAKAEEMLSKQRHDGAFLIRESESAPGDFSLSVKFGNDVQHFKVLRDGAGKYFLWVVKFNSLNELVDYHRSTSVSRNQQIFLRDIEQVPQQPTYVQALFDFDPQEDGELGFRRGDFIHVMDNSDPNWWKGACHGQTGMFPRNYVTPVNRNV
Where SH2 binding enrichment equals or exceeds 0.9, the correct label is True; where it does not, the label is False.

Sample answers from the record:
>  <sequence-entry>
KRAIGYYSATS [FAM120A_Y327]

>  <group-label>
False

$$$$
>  <sequence-entry>
DENRFYTRAAS [RPS19_Y54_W52R]

>  <group-label>
True

$$$$
>  <sequence-entry>
YSNKLYYQLEQ [PDPR_Y109]

>  <group-label>
False

$$$$
>  <sequence-entry>
PVQAAYQQVVA [HBB_Y131_K133Q]

>  <group-label>
False

$$$$
>  <sequence-entry>
HIAKVYRRDNP [HARS1_Y156]

>  <group-label>
True

$$$$

Can ARSHIYTFASC [MEFV_Y741] be said to have SH2 binding enrichment at or above 0.9?
False

Check YSGIYYKPESL [L2HGDH_Y103_H98Y] too.
False

Also need KDAGDYKCKAK [LRIT3_Y326] , thanks.
True

Repeat for the following sequence: HYVYYYSYLLK [PTEN_Y178_R173H]
False
